# credit: paper PMC11514473

- TARGET ENTITY: T1, 285bZIP E299A (human, UniProt P16220-1 285-339, C300S;C310S;C337S;E299A)
- T1 sequence: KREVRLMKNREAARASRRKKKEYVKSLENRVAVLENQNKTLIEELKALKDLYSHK
- EXPERIMENT: stopped-flow fluorescence (koff/kon); 10 mM Mg2+; 10 mM MES pH 6.5, 150 mM NaCl, 10 mM MgCl2, 0.05% Tween-20, 25 C; NMR: 10 mM Tris-d11, 150 mM NaCl, 10 mM MgCl2, 1 mM NaN3, 5% D2O (NOE at 25 C)
- CONDITION NOTES: protein: recombinant; tags: extra N-terminal Gly; chain copies: 2; label: 5' Alexa Fluor 488; hairpin (self-annealing, 11 bp stem, CCCC loop)
READOUT KIND: Kd (nM)
Respond numerically; units are nM and should not be typed.

Q. Quick one: Kd of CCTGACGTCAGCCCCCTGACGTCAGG (structured_DNA) [AlexaFluor488-CREh] ?
A. 0.0711
